Target: porcine pancreatic α-amylase (Sus scrofa, UniProt P00690)
Sequence (P00690 16-511): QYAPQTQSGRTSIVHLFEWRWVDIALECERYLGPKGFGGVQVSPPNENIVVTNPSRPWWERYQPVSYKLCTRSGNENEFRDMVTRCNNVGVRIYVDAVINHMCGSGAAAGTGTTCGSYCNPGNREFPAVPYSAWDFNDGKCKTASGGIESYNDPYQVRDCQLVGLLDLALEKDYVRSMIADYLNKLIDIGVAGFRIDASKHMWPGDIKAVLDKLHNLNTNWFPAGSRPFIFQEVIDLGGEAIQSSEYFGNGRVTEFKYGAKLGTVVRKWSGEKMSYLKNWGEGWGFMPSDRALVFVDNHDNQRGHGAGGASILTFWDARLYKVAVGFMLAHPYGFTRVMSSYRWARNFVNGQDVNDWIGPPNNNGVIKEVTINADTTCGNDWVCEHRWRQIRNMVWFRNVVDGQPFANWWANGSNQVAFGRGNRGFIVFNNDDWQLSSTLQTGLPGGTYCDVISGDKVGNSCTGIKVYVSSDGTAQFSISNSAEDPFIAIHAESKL
measurement-kind: IC50 (µM)

1. CCCCCCCCCCCCNC(=O)/C=C/c1ccc(O)c(O)c1 | 72.8

1. CCCCCCCCCCCCCCNC(=O)/C=C/c1ccc(O)c(O)c1
2. CCCCCCCCCCCCCCCCNC(=O)/C=C/c1ccc(O)c(O)c1
Prompt: Could you determine which record has the numerically smaller IC50? Candidates: 1 and 2 To answer, give the label that identifies your chosen option.
Response: 1
(1: 27 µM, 2: 58.4 µM)
